# TARGET_UNDER_TEST: alpha2B receptor (Homo sapiens, UniProt P18089)
# Construct: expressed in transfected cells; host or cells: NIH-3T3
# Sequence (P18089 whole entry): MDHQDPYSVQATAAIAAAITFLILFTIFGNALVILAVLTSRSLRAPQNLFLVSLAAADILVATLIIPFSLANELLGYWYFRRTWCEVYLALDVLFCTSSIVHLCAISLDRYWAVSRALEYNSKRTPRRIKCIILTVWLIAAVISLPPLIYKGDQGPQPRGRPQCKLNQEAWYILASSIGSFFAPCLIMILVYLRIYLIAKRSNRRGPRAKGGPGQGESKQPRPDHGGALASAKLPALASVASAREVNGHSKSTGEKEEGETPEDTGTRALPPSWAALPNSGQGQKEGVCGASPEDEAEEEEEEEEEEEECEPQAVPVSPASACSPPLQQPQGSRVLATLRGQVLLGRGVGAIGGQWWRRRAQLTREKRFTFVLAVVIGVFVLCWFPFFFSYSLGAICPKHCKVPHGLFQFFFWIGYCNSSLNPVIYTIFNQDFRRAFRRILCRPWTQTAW
# MEASUREMENT_PROTOCOL: Receptor Selection and Amplification Technology (RSAT) assay, alpha2B
# Type: cell-based
# DETAILS: RSAT, NIH-3T3 cells cotransfected with receptor and Gq/i5; not active = not active at concentrations less than 10 micromolar; read-out: Alpha 2B EC50
# Experimental: Receptor Selection and Amplification Technology (RSAT) Assay The RSAT assay measures a receptor-mediated loss of contact inhibition that results in selective proliferation of receptor-containing cells in a mixed population of confluent cells. The increase in cell number is assessed with an appropriate transfected marker gene such as β-galactosidase, the activity of which can be easily measured in a 96-well format. Receptors that activate the G protein, Gq, elicit this response. […]
Binarize EC50 at 200 nM; below is satisfied, at or above is not satisfied.

- MOLECULE: "O=C(NCCF)NC1CCCc2c(Br)cccc21 (stereo not drawn)"
  CLASS_LABEL: "satisfied"
- MOLECULE: "Cc1ccc2c(c1C)C(NC(=O)NCCF)CC2 (stereo not drawn)"
  CLASS_LABEL: "not satisfied"
- MOLECULE: "CC1CC(NC(=O)NCCF)c2ccccc21 (stereo not drawn)"
  CLASS_LABEL: "satisfied"
- MOLECULE: "O=C(NCCF)NC1Cc2cccc(Br)c2C1 (stereo not drawn)"
  CLASS_LABEL: "satisfied"
- MOLECULE: "O=C(NCCF)NC1CCc2ccc(F)c(F)c21 (stereo not drawn)"
  CLASS_LABEL: "satisfied"
- MOLECULE: "O=C(NCCF)NC1CCc2ccc(Br)cc21 (stereo not drawn)"
  CLASS_LABEL: "not satisfied"
- MOLECULE: "O=C(NCCF)NC1CCc2c(OC(=O)c3ccccc3)cccc21 (stereo not drawn)"
  CLASS_LABEL: "satisfied"
- MOLECULE: "COc1cccc2c1CCCC2NC(=O)NCCF (stereo not drawn)"
  CLASS_LABEL: "not satisfied"
- MOLECULE: "O=C(NCCF)NC1Cc2ccc(Cl)cc2C1 (stereo not drawn)"
  CLASS_LABEL: "not satisfied"
- MOLECULE: "O=C(NCCF)NC1CCc2ccc(Cl)c(Cl)c21 (stereo not drawn)"
  CLASS_LABEL: "satisfied"
- MOLECULE: "COc1ccc2c(c1)CC(NC(=O)NCCF)C2 (stereo not drawn)"
  CLASS_LABEL: "not satisfied"
- MOLECULE: "O=C(NCCF)NC1CCc2ncccc21 (stereo not drawn)"
  CLASS_LABEL: "satisfied"
- MOLECULE: "CCC1=C(C)C(NC(=O)NCCF)CC1 (stereo not drawn)"
  CLASS_LABEL: "not satisfied"
- MOLECULE: "O=C(NCCF)NC1CCCCc2ccccc21 (stereo not drawn)"
  CLASS_LABEL: "not satisfied"
- MOLECULE: "O=C(NCCF)NC1CCCc2c(F)cccc21 (stereo not drawn)"
  CLASS_LABEL: "satisfied"
- MOLECULE: "CC1=CC(NC(=O)NCCF)CC1 (stereo not drawn)"
  CLASS_LABEL: "not satisfied"
- MOLECULE: "O=C(NCCF)NC1CCc2cccnc21 (stereo not drawn)"
  CLASS_LABEL: "not satisfied"
- MOLECULE: "Cc1cccc2c1CC(NC(=O)NCCF)C2 (stereo not drawn)"
  CLASS_LABEL: "satisfied"
- MOLECULE: "O=C(NCCF)NC1CCc2ccc(F)cc21 (stereo not drawn)"
  CLASS_LABEL: "satisfied"
- MOLECULE: "CC1=C(C=O)CCCC1NC(=O)NCCF (stereo not drawn)"
  CLASS_LABEL: "not satisfied"
- MOLECULE: "COc1ccc2c(c1)C(NC(=O)NCCF)CC2 (stereo not drawn)"
  CLASS_LABEL: "not satisfied"
- MOLECULE: "Cc1ccc2c(c1)CC(NC(=O)NCCF)C2 (stereo not drawn)"
  CLASS_LABEL: "not satisfied"
- MOLECULE: "O=C(NCCF)NCC1CCc2ccccc21 (stereo not drawn)"
  CLASS_LABEL: "not satisfied"
- MOLECULE: "Cc1c(Cl)ccc2c1C(NC(=O)NCCF)CC2 (stereo not drawn)"
  CLASS_LABEL: "satisfied"
- MOLECULE: "O=C(NCCF)NC1CCCc2sccc21 (stereo not drawn)"
  CLASS_LABEL: "satisfied"
- MOLECULE: "O=C(NCCF)NC1CCc2c(O)cccc21 (stereo not drawn)"
  CLASS_LABEL: "satisfied"
- MOLECULE: "CC1=CC(NC(=O)NCCF)CCC1 (stereo not drawn)"
  CLASS_LABEL: "not satisfied"
- MOLECULE: "O=C(NCCF)NC1CCc2cccc(Cl)c21 (stereo not drawn)"
  CLASS_LABEL: "satisfied"
- MOLECULE: "COc1cccc2c1CC(NC(=O)NCCF)C2 (stereo not drawn)"
  CLASS_LABEL: "satisfied"
- MOLECULE: "O=C(NCCF)NC1CCCc2c(Cl)cccc21 (stereo not drawn)"
  CLASS_LABEL: "satisfied"

The measured values listed here are drawn from patent US7598417B2.
